Provide the recorded fold change of Cadaverine concentration for the entries that follow.
System: Klebsiella aerogenes DSM 30053
Assay: fold change of Cadaverine concentration vs plate DMSO controls (fold change (ratio)); higher = more amine produced, active = hit call of the paper (significant change in both replicates, either direction)
Details: 20 µM; incubation time: 27 h, anaerobic, 37 °C
Counter-ions that a name gives are not always drawn.
Answers are plain numbers.

I am curious: what fold change of Cadaverine concentration value has been reported for COc1cc(C)c(C(=O)c2c(OC)ccc(Br)c2C)c(OC)c1OC ?
1.01

I am curious: what fold change of Cadaverine concentration value has been reported for CCOC(=O)c1cncn1[C@H](C)c1ccccc1 [Etomidate] ?
1.07

I am curious: what fold change of Cadaverine concentration value has been reported for Fc1ccc(C(OCCN2CCN(CCCc3ccccc3)CC2)c2ccc(F)cc2)cc1 ?
1

For each entry beneath this line, provide reported fold change of Cadaverine concentration.
1. O=C(Nc1ccccc1-c1ccc(Cl)cc1)c1cccnc1Cl
2. CC(COc1ccc(Oc2ccccc2)cc1)Oc1ccccn1 (stereo unspecified)
3. Cc1cc(C)c(C2=C(OC(=O)CC(C)(C)C)C3(CCCC3)OC2=O)c(C)c1
4. C#C[C@]1(O)CC[C@H]2[C@@H]3CCC4=CC(=O)CC[C@]4(C)[C@H]3CC[C@@]21C [Ethisterone]
5. COP(=S)(OC)SCN1C(=O)c2ccccc2C1=O
6. CNC(C)(C)Cc1ccccc1 [Mephentermine hemisulfate]

1: 0.999; 2: 1.02; 3: 0.999; 4: 0.997; 5: 1.01; 6: 1.01

For each entry beneath this line, provide reported fold change of Cadaverine concentration.
1. CCN[C@@H](C)Cc1cccc(C(F)(F)F)c1 [Dexfenfluramine hydrochloride]
2. O=C(NC(=O)c1c(F)cccc1F)Nc1ccc(Cl)cc1

1. 1.06
2. 1.03

----------
System: Klebsiella aerogenes DSM 30053
Experiment: fold change of Cadaverine concentration vs plate DMSO controls (fold change (ratio)); higher = more amine produced, active = hit call of the paper (significant change in both replicates, either direction)
Conditions: 20 µM; incubation time: 27 h, anaerobic, 37 °C
Where a name gives a salt, the structure may show the parent alone.
MEASURED_PARAMETER: fold change of Cadaverine concentration

Take a look at these entries with their results.
I am curious: what fold change of Cadaverine concentration value has been reported for CC(=O)O[C@H]1C[C@H](O[C@H]2[C@@H](O)C[C@H](O[C@H]3[C@@H](O)C[C@H](O[C@H]4CC[C@@]5(C)[C@H](CC[C@@H]6[C@@H]5C[C@@H](O)[C@]5(C)[C@@H](C7=CC(=O)OC7)CC[C@]65O)C4)O[C@@H]3C)O[C@@H]2C)O[C@H](C)[C@H]1O[C@@H]1O[C@H](CO)[C@@H](O)[C@H](O)[C@H]1O [Lanatoside C] ?
0.996 (inactive)

I am curious: what fold change of Cadaverine concentration value has been reported for CCc1nn(C)c(C(=O)NCc2ccc(Oc3ccc(C)cc3)cc2)c1Cl ?
0.998 (inactive)

I am curious: what fold change of Cadaverine concentration value has been reported for S=C(NC1CCCCC1)N1CCC(c2cnc[nH]2)CC1 [Thioperamide maleate] ?
0.987 (inactive)

For each entry beneath this line, provide reported fold change of Cadaverine concentration.
1. CN(C)C(CSS(=O)(=O)O)CSS(=O)(=O)O
2. N#C/N=C1\SCCN1Cc1ccc(Cl)nc1
3. C#CCN1C(=O)COc2cc(F)c(N3C(=O)C4=C(CCCC4)C3=O)cc21
4. CC(C)(C)C(O)C(Oc1ccc(Cl)cc1)n1cncn1 (stereo unspecified)

0.988 (inactive)
1 (inactive)
0.988 (inactive)
1 (inactive)

For each entry beneath this line, provide reported fold change of Cadaverine concentration.
1. O=C(O)C(F)(F)C(F)(F)C(F)(F)C(F)(F)C(F)(F)C(F)(F)C(F)(F)C(F)(F)F [PFNA (Perfluorononanoic acid)]
2. C=CCC1(CC(C)C)C(=O)NC(=O)NC1=O [Butalbital]
3. CC(=O)OCC1=C(C(=O)O)N2C(=O)[C@@H](N)[C@H]2SC1 [Cephalosporanic acid, 7-amino]
4. c1ccc2c(c1)ccc1c3ccccc3sc21 [Benzo[b]naphtho[2,1-d]thiophene]
5. Cc1ccccc1[N+](=O)[O-] [2-Nitrotoluene]

["0.982 (inactive)", "0.997 (inactive)", "0.985 (inactive)", "1.01 (inactive)", "0.993 (inactive)"]

For each entry beneath this line, provide reported fold change of Cadaverine concentration.
1. CCC(CC)Nc1c([N+](=O)[O-])cc(C)c(C)c1[N+](=O)[O-]
2. CC(C)N(CCC(C(N)=O)(c1ccccc1)c1ccccn1)C(C)C (stereo unspecified) [Disopyramide]
3. CCCSP(=O)(OCC)Oc1ccc(Br)cc1Cl (stereo unspecified)
4. CC(C)=CC1C(C(=O)OCc2cccc(Oc3ccccc3)c2)C1(C)C (stereo unspecified) [Phenothrin]

1: 0.992 (inactive); 2: 1 (inactive); 3: 0.995 (inactive); 4: 1.01 (inactive)
